Source: ChEMBL document CHEMBL1201862

system: MDA-MB-231; test: NCI tumour cell line growth inhibition, 48 h
Activity calls are given as the source filed them. Cut-off read from the data, not from the text of the source: active = GI50 up to about 1.1 µM and inactive = higher.
The reply should name one outcome from active, inactive

Example entries and their recorded answers appear below.
{"molecule": "COc1ccc(/C=C2\\N=C3Sc4c([nH]cnc4=O)N3C2=O)cc1", "assay.system": "MDA-MB-231", "classification": "inactive"}
{"molecule": "O=C1/C(=C\\c2ccc([N+](=O)[O-])cc2)CS(=O)(=O)C/C1=C/c1ccc([N+](=O)[O-])cc1", "assay.system": "MDA-MB-231", "classification": "active"}

Which outcome was assigned to CCCCCC#CCOC(=O)C(=[N+]=[N-])P(=O)(c1ccccc1)c1ccccc1 in this test?
inactive

Which outcome was assigned to CC(Nc1ccc(Cl)c(Cl)c1)c1ccncc1 (centres undefined) in this test?
inactive

Which outcome was assigned to O=c1oc2ccccc2c(Nc2ccc3c(c2)S(=O)(=O)c2ccccc2O3)c1[N+](=O)[O-] in this test?
inactive

Which outcome was assigned to CCNC(=S)Nc1c(C#N)c2n(c1C(=O)OCC)CCCCC2 in this test?
inactive

Which outcome was assigned to Cc1ccc2c(c1)Nc1cc(C(F)(F)F)ccc1[PH]2=O (centres undefined) in this test?
inactive

Which outcome was assigned to Cc1nnc(N)nc1/C=C/c1c(O)ccc2ccccc12 in this test?
inactive

Which outcome was assigned to c1ccc(-c2nn(-c3ccccc3)[n+](-c3ccccc3)n2)cc1 in this test?
inactive

Which outcome was assigned to C=CCOC(=O)CCCCCCCCCCCCCCCOC(=O)c1c(CCC[C@@H](C)O[Si](C)(C)C(C)(C)C)nc([O-])[n+]2c1CC[C@H]2CC1(CC/C=C\[C@H](CC)O[Si](C(C)C)(C(C)C)C(C)C)OCCO1 in this test?
inactive

Which outcome was assigned to CC(C)COP(=O)(OCC(C)C)C(NS(=O)(=O)c1ccccc1)(C(F)(F)F)C(F)(F)F in this test?
inactive

Which outcome was assigned to CCOC(=O)/C(C(=O)Nc1ccc(Cl)cc1)=C(/N)N1CCCC1 in this test?
inactive

Which outcome was assigned to COc1ccc2c(ccc3c(COC(=O)NC(C)C)c(COC(=O)NC(C)C)n(C)c32)c1 in this test?
inactive

Which outcome was assigned to CC12OOC(c3ccccc31)c1c2ccc2ccccc12 (centres undefined) in this test?
inactive

Which outcome was assigned to COc1ccccc1C1=C2C(=O)N(C)C(c3ccccc3OC)=C2C(=O)N1C in this test?
inactive

---

test system: HOP-18; test: NCI tumour cell line growth inhibition, 48 h
Calls of active or inactive are those of the source. Cut-off read from the data, not from the text of the source: active = GI50 up to about 1.1 µM and inactive = higher.
The reply should name one outcome from TRUE (active), FALSE (inactive)

{"molecule": "Cc1ccc(NC(=O)C2C(=O)N(c3ccc(C)c(C)c3)C(=O)/C2=N/O)cc1C (stereo unspecified)", "assay.system": "HOP-18", "classification": "FALSE"}
{"molecule": "C/C([O-])=C(/c1nc(-c2ccc([N+](=O)[O-])o2)no1)[n+]1cc(C)ccc1C", "assay.system": "HOP-18", "classification": "FALSE"}
{"molecule": "COc1ccccc1NC(=O)NS(=O)(=O)c1ccccc1", "assay.system": "HOP-18", "classification": "FALSE"}
{"molecule": "O=C1C2C3C=C4c5ccccc5N(c5ccccc5)C4([C@@H]2C(=O)N1c1ccc(F)cc1)[C@H]1C(=O)N(c2ccc(F)cc2)C(=O)[C@@H]31 (stereo partly specified)", "assay.system": "HOP-18", "classification": "FALSE"}
{"molecule": "O=C1c2ccccc2C(=O)c2c1ccc1c3ccccc3n(Cc3ccccc3)c21", "assay.system": "HOP-18", "classification": "TRUE"}
{"molecule": "COc1ccc(Sc2ccccc2N)cc1", "assay.system": "HOP-18", "classification": "FALSE"}
{"molecule": "C#CC[C@@]12CC(=O)C[C@@H]1CCC1(C2)OCCO1.C#CC[C@]12CC(=O)CC[C@H]1CC(=O)C2", "assay.system": "HOP-18", "classification": "FALSE"}
{"molecule": "CCCCCCCCCCCC1=C(O)C(=O)C=C(O)C1=O", "assay.system": "HOP-18", "classification": "FALSE"}
{"molecule": "Brc1ccccc2cc(-c3ccccc3)nc1-2", "assay.system": "HOP-18", "classification": "FALSE"}
{"molecule": "Cc1ccc(S(=O)(=O)N/N=C(/CC(=O)c2c(C)[n+]([O-])c3ccccc3[n+]2[O-])C(=O)Nc2ccccc2C)cc1", "assay.system": "HOP-18", "classification": "FALSE"}

Which outcome was assigned to COC(=O)N1[C@H]2Cc3c(OC)c(C)c(OC)c(OC)c3[C@@H]1/C(=C\c1cc(OC)c(OC)c(C)c1OC)N(Cc1ccccc1)C2=O in this test?
FALSE

Which outcome was assigned to CSc1nc2c(ncn2C2OCC(O)C(O)C2O)c(=O)n1C (stereo unspecified) in this test?
FALSE

Which outcome was assigned to C/C(CN1C(=O)c2ccccc2C1=O)=N\NS(C)(=O)=O in this test?
FALSE

Which outcome was assigned to C=C(CN(C)C)C(=O)c1ccc(C(=O)C(=C)CN(C)C)cc1 in this test?
FALSE

Which outcome was assigned to COc1ccc2cc1Oc1ccc(cc1)C[C@H]1c3cc(c(OC)cc3CCN1C)Oc1c(O)c(OC)cc3c1[C@H](C2)N(C)CC3 in this test?
FALSE

Which outcome was assigned to Cc1cc2c(=O)cc(-c3ccc(F)cc3)oc2c(C(=O)O)c1C in this test?
FALSE

Which outcome was assigned to O=C1N(c2ccccc2)C(=O)C2(SC=NN2Cc2ccccc2)N1c1ccccc1 (stereo unspecified) in this test?
FALSE

Which outcome was assigned to CC(C)[C@H]1CO[C@]2(C)[C@@H]3CN(Cc4ccccc4)C[C@@H]3C(=O)N12 in this test?
FALSE

Which outcome was assigned to Nc1nn(CC(O)CO)c(=O)s1 (stereo unspecified) in this test?
FALSE

Which outcome was assigned to CC(/C=C1\CCC(CN(C)C)C1=O)c1cccc(Br)c1 (stereo unspecified) in this test?
FALSE

Which outcome was assigned to O=C(Nc1ccccc1C(=O)NC(=O)c1ccccc1NC(=O)c1ccccc1)c1ccccc1 in this test?
FALSE

Which outcome was assigned to CC1C[C@]2(C[C@@H](C)C(=O)O2)OC2CC3(C)C4CCC5C(C)(C)OC(=O)CC[C@@]56C[C@@]46CC[C@]3(C)C12 (stereo partly specified) in this test?
FALSE

Which outcome was assigned to O=C(O)CCNS(=O)(=O)c1ccc([N+](=O)[O-])cc1 in this test?
FALSE
